- Target desc: Ba/F3 EGFR Wild-type (Homo sapiens)
- Sequence (P00533 whole entry, change not shown): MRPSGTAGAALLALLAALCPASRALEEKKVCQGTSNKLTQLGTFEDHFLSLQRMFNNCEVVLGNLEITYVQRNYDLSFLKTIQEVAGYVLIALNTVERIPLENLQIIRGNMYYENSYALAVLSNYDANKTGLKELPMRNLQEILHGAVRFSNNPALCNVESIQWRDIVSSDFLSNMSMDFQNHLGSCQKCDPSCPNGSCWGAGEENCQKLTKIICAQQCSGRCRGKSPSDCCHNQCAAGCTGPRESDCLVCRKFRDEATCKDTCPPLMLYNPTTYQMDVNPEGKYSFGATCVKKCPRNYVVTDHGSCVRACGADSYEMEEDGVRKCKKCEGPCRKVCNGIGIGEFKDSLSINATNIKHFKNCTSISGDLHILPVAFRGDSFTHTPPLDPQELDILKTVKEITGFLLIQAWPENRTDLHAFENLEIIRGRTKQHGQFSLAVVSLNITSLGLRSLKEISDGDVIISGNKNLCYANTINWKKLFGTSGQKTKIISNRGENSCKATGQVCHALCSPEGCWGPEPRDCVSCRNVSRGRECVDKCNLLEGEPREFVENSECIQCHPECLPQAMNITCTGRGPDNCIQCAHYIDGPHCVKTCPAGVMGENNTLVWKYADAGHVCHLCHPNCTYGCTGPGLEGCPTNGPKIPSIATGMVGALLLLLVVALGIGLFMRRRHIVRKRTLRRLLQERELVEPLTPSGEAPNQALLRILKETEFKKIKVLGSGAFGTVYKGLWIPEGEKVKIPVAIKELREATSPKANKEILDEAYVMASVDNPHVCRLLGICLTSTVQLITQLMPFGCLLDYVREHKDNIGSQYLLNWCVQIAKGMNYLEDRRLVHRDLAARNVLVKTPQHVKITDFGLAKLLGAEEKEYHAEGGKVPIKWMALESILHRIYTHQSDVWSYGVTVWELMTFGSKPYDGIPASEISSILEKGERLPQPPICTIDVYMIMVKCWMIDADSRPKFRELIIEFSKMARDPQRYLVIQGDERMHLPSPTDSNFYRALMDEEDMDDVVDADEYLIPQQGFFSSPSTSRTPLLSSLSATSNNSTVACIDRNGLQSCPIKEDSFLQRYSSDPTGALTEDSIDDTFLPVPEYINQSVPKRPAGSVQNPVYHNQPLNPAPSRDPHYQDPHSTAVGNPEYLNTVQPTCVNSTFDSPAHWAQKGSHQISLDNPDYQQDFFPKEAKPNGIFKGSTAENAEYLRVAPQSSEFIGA
- Assay name: CellTiter-Glo cell viability, Ba/F3 EGFR wild-type cells
- Assay type: cell-based, murine
- Test settings: 72 hours, read-out: Ba/F3 EGFR mutant cell (IC50, nM) WT
# label = condition met if GI50 < 700 nM else condition not met

As a guide, the following entries are already answered.
COc1cc(N2CCC(N3CCN(C)CC3)CC2)c(C)cc1Nc1ncc(C(F)(F)F)c(Nc2ccc3nccnc3c2NS(C)(=O)=O)n1 : condition not met
CCc1cc(Nc2ncc(Br)c(N(C)c3ccc4nccnc4c3N(C)S(C)(=O)=O)n2)c(OC)cc1N1CCC(N(C)C)CC1 : condition not met
CCS(=O)(=O)Nc1cc(OC)ccc1Nc1nc(Nc2cc(C)c(N3CCC(N4CCN(C)CC4)CC3)cc2OC)ncc1Cl : condition met

Query: Could you please tell me whether GI50 recorded for "CCc1cc(Nc2ncc(Br)c(Nc3ccc4nccnc4c3N(C)S(C)(=O)=O)n2)c(OC)cc1N1CC2(C1)CN(C(C)C)C2" is less than 700 nM?
Response: condition met

Query: API: query returns whether the compound falls strictly under 700 nM in GI50. Query: "CCCc1cc(Nc2ncc(Cl)c(Nc3cccc(OC)c3NS(C)(=O)=O)n2)c(OC)cc1N1CCC(N(C)C)CC1"
Response: condition met

Query: Below 700 nM on GI50? Entry "COc1cc(N2CCC(N3CCN(C)CC3)CC2)c(C(F)(F)F)cc1Nc1ncc(Cl)c(Nc2ccc3nccnc3c2NS(C)(=O)=O)n1"
Response: condition met

Query: Please check: GI50 for COc1cc(N2CCOCC2)c(C)cc1Nc1ncc(Br)c(Nc2ccc3nccnc3c2S(C)(=O)=O)n1 [Example D1] , strictly under 700 nM or not?
Response: condition not met

Query: # check: GI50 < 700 nM for "COc1cc(N2CCC(N(C)C)CC2)ccc1Nc1ncc(Br)c(Nc2ccc3nccnc3c2NS(C)(=O)=O)n1"
Response: condition not met

Query: Hello, is GI50 of the following compound strictly smaller than 700 nM? "COc1cc(C2CCN(C)CC2)ccc1Nc1ncc(Cl)c(Nc2ccc3nccnc3c2NS(C)(=O)=O)n1"
Response: condition not met
